Source of measurements: patent US20230079819A1

tested.target: BRM (Homo sapiens, UniProt P51531)
Construct: made in house; host or cells: High Five insect cells
Sequence (P51531 whole entry): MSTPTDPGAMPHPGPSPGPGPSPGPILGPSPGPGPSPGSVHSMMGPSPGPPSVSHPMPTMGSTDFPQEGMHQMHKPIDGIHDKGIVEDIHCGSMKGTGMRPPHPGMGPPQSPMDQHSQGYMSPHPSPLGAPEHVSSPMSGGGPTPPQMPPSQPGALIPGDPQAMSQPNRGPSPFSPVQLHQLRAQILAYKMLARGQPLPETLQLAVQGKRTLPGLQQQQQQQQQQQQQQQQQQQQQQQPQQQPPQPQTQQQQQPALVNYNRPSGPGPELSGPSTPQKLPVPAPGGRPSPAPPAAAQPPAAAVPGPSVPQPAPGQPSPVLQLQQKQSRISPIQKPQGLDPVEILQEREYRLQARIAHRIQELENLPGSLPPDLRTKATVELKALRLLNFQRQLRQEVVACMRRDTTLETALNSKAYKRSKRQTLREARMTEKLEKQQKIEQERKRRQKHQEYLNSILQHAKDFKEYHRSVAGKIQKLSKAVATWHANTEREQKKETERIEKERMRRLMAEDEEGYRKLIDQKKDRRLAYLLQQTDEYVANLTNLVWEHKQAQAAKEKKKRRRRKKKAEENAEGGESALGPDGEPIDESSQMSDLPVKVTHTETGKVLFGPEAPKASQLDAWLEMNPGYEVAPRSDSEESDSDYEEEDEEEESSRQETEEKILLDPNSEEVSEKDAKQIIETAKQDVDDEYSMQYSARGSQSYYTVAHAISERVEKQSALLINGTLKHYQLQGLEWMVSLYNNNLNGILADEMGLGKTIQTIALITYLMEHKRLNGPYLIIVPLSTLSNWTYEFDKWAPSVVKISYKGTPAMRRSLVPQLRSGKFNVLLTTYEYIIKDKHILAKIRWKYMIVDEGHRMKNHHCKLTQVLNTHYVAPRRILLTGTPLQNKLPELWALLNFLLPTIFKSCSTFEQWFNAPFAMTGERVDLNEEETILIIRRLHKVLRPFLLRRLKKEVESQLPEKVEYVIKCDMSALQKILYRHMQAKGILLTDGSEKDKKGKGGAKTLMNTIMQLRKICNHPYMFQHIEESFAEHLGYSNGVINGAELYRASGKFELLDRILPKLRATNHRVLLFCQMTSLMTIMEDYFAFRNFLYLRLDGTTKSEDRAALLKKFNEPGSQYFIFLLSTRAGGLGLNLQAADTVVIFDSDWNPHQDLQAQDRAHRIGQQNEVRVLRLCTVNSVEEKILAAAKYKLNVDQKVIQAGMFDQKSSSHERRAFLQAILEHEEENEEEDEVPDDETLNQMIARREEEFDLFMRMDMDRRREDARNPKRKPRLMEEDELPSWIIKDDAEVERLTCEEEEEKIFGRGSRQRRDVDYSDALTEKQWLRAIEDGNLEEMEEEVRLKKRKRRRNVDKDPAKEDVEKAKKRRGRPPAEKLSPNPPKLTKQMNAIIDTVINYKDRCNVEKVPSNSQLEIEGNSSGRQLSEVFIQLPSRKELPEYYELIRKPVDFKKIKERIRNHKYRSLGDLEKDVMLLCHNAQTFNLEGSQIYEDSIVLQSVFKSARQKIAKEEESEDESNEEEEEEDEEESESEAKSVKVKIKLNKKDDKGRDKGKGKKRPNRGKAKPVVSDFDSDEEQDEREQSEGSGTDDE
assay: ATPase catalytic activity of BRM, ADP-Glo in vitro biochemical assay
assay.setup: ATPase catalytic activity, 30 nM BRM, 400 μM ATP, read-out: BRM IP50
pIC50: −log10 of the molar value.
Entries and their pIC50

Before answering, review these 6 worked examples.
INSERT INTO measurements (mol_smiles, test_result) VALUES
  ('COC[C@H](NC(=O)c1ccn(S(C)(=O)=O)c1)C(=O)Nc1nc(-c2cccc(C3COC3)c2)cs1', '< 8.00'),
  ('CS(=O)(=O)n1ccc(C(=O)NCC(=O)Nc2nc(-c3cccc(N4CC[C@@H](N)C(F)(F)C4)c3)cs2)c1', '> 8.00'),
  ('COC[C@H](NC(=O)c1ccn(C(C)(C)C)c1)C(=O)Nc1nc(-c2cc(F)c3ccn(C)c(=O)c3c2)cs1', '> 8.00'),
  ('CC(C)(C)n1ccc(C(=O)NCC(=O)Nc2nc(-c3cccc(C4CC(F)(F)C4)n3)cs2)c1', '< 7.00'),
  ('CC(C)(F)COc1cccc(-c2csc(NC(=O)CNC(=O)c3ccn(S(C)(=O)=O)c3)n2)c1', '< 8.00'),
  ('CS(=O)(=O)n1ccc(C(=O)NCC(=O)Nc2nc(-c3ccc4c(c3)N(CC3COC3)CC4)cs2)c1', '< 8.00');

INPUT: Which pIC50 value belongs to CC(C)(C)n1ccc(C(=O)NCC(=O)Nc2nc(-c3cccc(N4CC(N5CCS(=O)(=O)CC5)C4)n3)cs2)c1 ?
OUTPUT: < 7.00

INPUT: I would be grateful if you could share the reported pIC50 for CS(=O)(=O)n1ccc(C(=O)NCC(=O)Nc2nc(-c3ccc4c(c3)OCO4)cs2)c1 .
OUTPUT: < 8.00

INPUT: Param item = Cn1ccc2ccc(-c3csc(NC(=O)CNC(=O)c4ccn(C5(C#N)CC5)c4)n3)cc2c1=O ; retrieve measured pIC50.
OUTPUT: > 8.00

INPUT: Requested read-out: pIC50. Entry: COC[C@H](NC(=O)c1ccn(S(C)(=O)=O)c1)C(=O)Nc1nc(-c2cc(F)c3c(c2)CCO3)cs1
OUTPUT: > 8.00

INPUT: Fill in: pIC50 of CC(C)(C)n1ccc(C(=O)NCC(=O)Nc2nc(-c3cccc(N4CCc5ccncc5C4)n3)cs2)c1 is ___
OUTPUT: < 8.00

INPUT: Look up pIC50: Cn1ncc2ccc(-c3csc(NC(=O)CNC(=O)c4ccn(C(C)(C)C)c4)n3)cc2c1=O
OUTPUT: < 8.00

INPUT: Report pIC50 for CC(C)N1CCc2ccc(-c3csc(NC(=O)CNC(=O)c4ccn(S(C)(=O)=O)c4)n3)cc21 please.
OUTPUT: < 7.00

INPUT: # input molecule: Cn1cnc2ccc(-c3csc(NC(=O)CNC(=O)c4ccn(C(C)(C)C)c4)n3)cc2c1=O ; wanted: its pIC50
OUTPUT: < 8.00

INPUT: Please give the measured pIC50 for this molecule: CC(C)(C)n1ccc(C(=O)NCC(=O)Nc2nc(-c3cccc(N4CCC5(CC5)C4)n3)cs2)c1
OUTPUT: < 8.00

----------
tested.target: BRM (Homo sapiens)
Construct: made in house; host or cells: High Five insect cells
assay: ATPase catalytic activity of BRM, ADP-Glo in vitro biochemical assay
assay.setup: ATPase catalytic activity, 30 nM BRM, 400 μM ATP, read-out: BRM IP50 (μM)*
IC50 values, listed per item

INSERT INTO results (mol_smiles, test_result) VALUES
  ('CN(C)CCN(C)c1cc(-c2cccc(-c3csc(NC(=O)CNC(=O)c4ccn(S(C)(=O)=O)c4)n3)c2)ccn1', '> 0.01 µM'),
  ('CN(C)CCNc1cc(-c2cccc(-c3csc(NC(=O)CNC(=O)c4ccn(S(C)(=O)=O)c4)n3)c2)ccn1', '> 0.01 µM'),
  ('C[C@@H]1C[C@@H](COc2cccc(-c3csc(NC(=O)CNC(=O)c4ccn(S(C)(=O)=O)c4)n3)c2)C[C@H](C)O1', '> 0.01 µM');

INPUT: Notebook: pull reported IC50 for BRM (Homo sapiens), entry CS(=O)(=O)n1ccc(C(=O)NCC(=O)Nc2nc(-c3cccc(N4CC5(COC5)C4)c3)cs2)c1
OUTPUT: < 0.01 µM

INPUT: Test system BRM (Homo sapiens); read-out IC50; what value for COC[C@@H]1CCN(c2cccc(-c3csc(NC(=O)CNC(=O)c4ccn(S(C)(=O)=O)c4)n3)c2)C1 ?
OUTPUT: < 0.01 µM

----------
tested.target: BRM (Homo sapiens)
Construct: made in house; host or cells: High Five insect cells
assay: ATPase catalytic activity of BRM, ADP-Glo in vitro biochemical assay
assay.setup: ATPase catalytic activity, 30 nM BRM, 400 μM ATP, read-out: BRM IP50 (μM)*
Property: IC50; scope: individual molecules

Example entries and their recorded answers appear below.
INSERT INTO measurements (molecule, tested_target, test_result) VALUES
  ('CN1CCCCc2ccc(-c3csc(NC(=O)CNC(=O)c4ccn(S(C)(=O)=O)c4)n3)cc21 [Compound 273]', 'BRM (Homo sapiens)', '> 0.01 µM'),
  ('CC1(O)CCN(c2cccc(-c3csc(NC(=O)CNC(=O)c4ccn(S(C)(=O)=O)c4)n3)c2)CC1 [Compound 243]', 'BRM (Homo sapiens)', '> 0.01 µM'),
  ('COC[C@H](NC(=O)c1ccn(S(C)(=O)=O)c1)C(=O)Nc1nc(-c2cccc(-c3cccc(C)n3)c2)cs1 [Compound 356]', 'BRM (Homo sapiens)', '> 0.01 µM'),
  ('CS(=O)(=O)n1ccc(C(=O)NCC(=O)Nc2nc(-c3cccc(N4CCC5(CC4)COC5)c3)cs2)c1 [Compound 202]', 'BRM (Homo sapiens)', '> 0.01 µM'),
  ('COC1(C)CCN(c2cccc(-c3csc(NC(=O)CNC(=O)c4ccn(S(C)(=O)=O)c4)n3)c2)CC1 [Compound 96]', 'BRM (Homo sapiens)', '> 0.01 µM');

INPUT: Looking for the measured IC50 of COC[C@H](NC(=O)c1ccn(S(C)(=O)=O)c1)C(=O)Nc1nc(-c2cccc(-c3ccncn3)c2)cs1 [Compound 65] , can you help?
OUTPUT: < 0.01 µM

INPUT: Suppose we examine the molecule CS(=O)(=O)n1ccc(C(=O)NCC(=O)Nc2nc(-c3cccc(N4CC[C@H](O)C4)c3)cs2)c1 [Compound 177] ; what IC50 value has been reported?
OUTPUT: > 0.01 µM

INPUT: # query: IC50 of entry Cc1cccc(-c2csc(NC(=O)CNC(=O)c3ccn(S(C)(=O)=O)c3)n2)c1 [Compound 247]
OUTPUT: > 0.01 µM

INPUT: Any idea what IC50 was measured for COC(C)(C)C#Cc1cccc(-c2csc(NC(=O)CNC(=O)c3ccn(S(C)(=O)=O)c3)n2)c1 [Compound 363] ?
OUTPUT: > 0.01 µM

INPUT: Fill in: IC50 of COC[C@H](NC(=O)c1ccn(C(C)(C)C)c1)C(=O)Nc1nc(-c2cccc(-c3ccn(C)n3)c2)cs1 [Compound 62] is ___
OUTPUT: > 0.01 µM

----------
Listed below: IC50 values for each entry.
tested.target: BRM (Homo sapiens, UniProt P51531)
Construct: made in house; host or cells: High Five insect cells
assay: ATPase catalytic activity of BRM, ADP-Glo in vitro biochemical assay
assay.setup: ATPase catalytic activity, 30 nM BRM, 400 μM ATP, read-out: BRM IP50 (μM)*

Sample records with IC50:
INSERT INTO assay_data (mol_smiles, readout_kind, test_result) VALUES
  ('NCCS(=O)(=O)n1ccc(C(=O)NCC(=O)Nc2nc(-c3cccc(-c4ccncc4)c3)cs2)c1', 'IC50', '> 0.01 µM'),
  ('CS(=O)(=O)n1ccc(C(=O)NCC(=O)Nc2nc(-c3cccc(-c4ccnc(N5CCNCC5)c4)c3)cs2)c1', 'IC50', '< 0.01 µM'),
  ('CS(=O)(=O)n1ccc(C(=O)NCC(=O)Nc2nc(-c3cccc(N4CC[C@@H](O)[C@@H](F)C4)c3)cs2)c1', 'IC50', '< 0.01 µM');

INPUT: Suppose we examine the molecule CS(=O)(=O)n1ccc(C(=O)NCC(=O)Nc2nc(-c3cccc(N4C[C@H]5COC[C@H]5C4)c3)cs2)c1 ; what IC50 value has been reported?
OUTPUT: > 0.01 µM

INPUT: Bench note: what IC50 did COC[C@H](NC(=O)c1ccn(S(C)(=O)=O)c1)C(=O)Nc1nc(-c2cccc(-c3cc(C)nc(C)c3)c2)cs1 show?
OUTPUT: < 0.01 µM

INPUT: Look at this molecule and give its reported IC50. CS(=O)(=O)n1ccc(C(=O)NCC(=O)Nc2nc(-c3cccc(OCF)c3)cs2)c1
OUTPUT: > 0.01 µM

INPUT: Look up IC50: COc1cccc(-c2csc(NC(=O)CNC(=O)c3ccn(C(C)(C)C)c3)n2)c1
OUTPUT: > 0.01 µM
